protocolDescription: Aqueous solubility of the compound at pH 7.4
Type: physicochemical
Measured solubility accompanies every entry in the list below.

# example entries with known answers
                                 smilescode  measuredmetric  reportedmeasurement
0  CCCn1c(=O)c2[nH]c(-c3cnn(CC#Cc4cccc(C(=O)O)c4)c3)nc2n(CCC)c1=O      solubility               529 µM
1  CCCn1c(=O)c2[nH]c(-c3cnn(CC#Cc4cccc(OC(F)(F)F)c4)c3)nc2n(CCC)c1=O      solubility               < 6 µM

// next item, solubility requested
Problem: Recorded solubility for CCCn1c(=O)c2[nH]c(-c3cnn(CC#Cc4cccc(OC(F)(F)F)c4)c3)nc2n(CC)c1=O , please?
Result: 21 µM
